# Tested on: LOC_OS02G45750-cb003
# Assay procedure: thermal shift delta Tm vs DMSO control; higher = stronger stabilization (binding);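 also: purified Escherichia coli-expressed rice kinase domain construct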
# Condition details: 12.5 µM; protein concentration 2 µM
Counter-ions that a name gives are not always drawn.
Assign thermal shift delta Tm to each entry below.
Kindly answer with a numeric value in °C, unit omitted.

The value of thermal shift delta Tm measured for the compound C[C@H]1CNCCCN1S(=O)(=O)c1cccc2cncc(F)c12 [Ripasudil (K-115) hydrochloride dihydrate] turned out to be 0.9

Item: C[C@@H](Oc1ccc2[nH]nc(/C=C/c3cnn(CCO)c3)c2c1)c1c(Cl)cncc1Cl | thermal shift delta Tm: 13.1

thermal shift delta Tm recorded for this compound, Cn1cc(-c2ccc(F)c(C(F)(F)F)c2)nc1C1CCN(c2ncnc3[nH]ncc23)CC1 , is 0.33

What the record says about CN1CCN(c2ccc3nc(-c4c(N)c5c(F)cccc5[nH]c4=O)[nH]c3c2)CC1 [Dovitinib (TKI258) Lactate] : thermal shift delta Tm is 16.7

Please fill in: thermal shift delta Tm reported for Cc1ccc(Nc2cc(N[C@@H]3CCCC[C@@H]3N)nnc2C(N)=O)nc1C = 2.16

thermal shift delta Tm reported for this compound COc1cc2nccc(Oc3ccc(NC(=O)C4(C(=O)Nc5ccc(F)cc5)CC4)cc3)c2cc1OC : 1.97

Noted for O=c1sn(-c2cccc3ccccc23)c(=O)n1Cc1ccccc1 : its thermal shift delta Tm reads 0

Entry CO[C@H]1CC[C@H](N2C(=O)CNc3ncc(-c4ccc(C(C)(C)O)nc4)nc32)CC1 ; thermal shift delta Tm = 0.31

* * *

# System: LOC_OS01G67340-cb003
# Assay procedure: thermal shift delta Tm vs DMSO control; higher = stronger stabilization (binding)
# Condition details: 12.5 µM; protein concentration 2 µM
Can you tell me thermal shift delta Tm for the items I'm about to list?
Give your result in °C as a bare value.

Entry C#Cc1cccc(Nc2ncnc3cc(OC)c(OCCCCCCC(=O)NO)cc23)c1 , tested on LOC_OS01G67340-cb003, has a reported thermal shift delta Tm of -0.47

With LOC_OS01G67340-cb003 as the test system, COc1cc(N2CCC(N)CC2)ccc1Nc1ncc(Cl)c(-c2c[nH]c3ccccc23)n1 showed thermal shift delta Tm of 0.6

Measured on LOC_OS01G67340-cb003, O=C(Nc1ccc(-c2ccnc(Nc3ccc(N4CCOCC4)cc3)n2)cc1)C1CCCN1 (centres undefined) has a documented thermal shift delta Tm of -0.06

Reading of thermal shift delta Tm for CN(C[C@@H]1COCCO1)S(=O)(=O)Nc1ccc2ccc3ncc(-c4cnn(C)c4)cc3c(=O)c2c1 with LOC_OS01G67340-cb003: 0.51

Measured thermal shift delta Tm for this entry COc1cc(OC)c(/C=C/S(=O)(=O)Cc2ccc(OC)c(NCC(=O)O)c2)c(OC)c1 on LOC_OS01G67340-cb003: -0.23

Note to self: thermal shift delta Tm of CC(C)(C)c1nc(-c2ccc(NC(=O)Nc3cccc(C(F)(F)F)c3)c3ccccc23)c2c(N)nccn12 [kira6] with LOC_OS01G67340-cb003 was 8.45

The reported thermal shift delta Tm value, LOC_OS01G67340-cb003, for CNC(=O)c1cc(COc2nnc(Nc3ccc(Cl)cc3)c3ccoc23)ccn1 [Telatinib] reads 0.82

thermal shift delta Tm on LOC_OS01G67340-cb003 for NC(=O)c1ncn([C@@H]2O[C@H](CO)[C@@H](O)[C@H]2O)c1N [AICAR (Acadesine)] is -0.25

Entry COc1ccc(C(=O)Nc2sc3c(c2C(N)=O)CCCC3)cc1OC , tested on LOC_OS01G67340-cb003, has a reported thermal shift delta Tm of 1.69

* * *

Provide the recorded thermal shift delta Tm for the entries that follow.
# Tested on: LOC_OS04G38480-cb003
# Sequence (as listed by the source): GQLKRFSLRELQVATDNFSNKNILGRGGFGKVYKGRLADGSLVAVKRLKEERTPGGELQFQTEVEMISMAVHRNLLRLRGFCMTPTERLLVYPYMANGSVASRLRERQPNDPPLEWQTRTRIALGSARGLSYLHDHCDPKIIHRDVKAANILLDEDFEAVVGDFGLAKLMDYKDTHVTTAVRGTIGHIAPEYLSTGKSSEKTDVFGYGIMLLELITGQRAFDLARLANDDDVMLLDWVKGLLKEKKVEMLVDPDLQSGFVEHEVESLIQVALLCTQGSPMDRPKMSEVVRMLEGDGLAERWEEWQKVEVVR
# Assay procedure: thermal shift delta Tm vs DMSO control; higher = stronger stabilization (binding)
# Condition details: 12.5 µM; protein concentration 2 µM
Report the figure in °C without appending any unit label.

Considering COc1cc2ncnc(Nc3cccc(Cl)c3F)c2cc1OC(=O)N1CCN(C)C[C@H]1C , its thermal shift delta Tm with LOC_OS04G38480-cb003 was recorded as 1.2

Tested system LOC_OS04G38480-cb003; thermal shift delta Tm recorded for Cc1cc(Nc2cc(N3CCN(C)CC3)nc(/C=C/c3ccccc3)n2)n[nH]1 was 1.95

// thermal shift delta Tm (LOC_OS04G38480-cb003) for CNC(=O)c1cc(Oc2ccc(NC(=O)Nc3cc(C(C)(C)C)nn3-c3ccc4ncccc4c3)c(F)c2)ccn1 = 2.8

Record CCNC(=O)Nc1ccc(-c2nc(N3CCOC[C@@H]3C)c3c(n2)C(C)(C)S(=O)(=O)C3)cc1 ; system LOC_OS04G38480-cb003; thermal shift delta Tm = 1.39

* * *

# Tested on: LOC_OS01G14860-cb001
# Assay procedure: thermal shift delta Tm vs DMSO control; higher = stronger stabilization (binding)
# Condition details: 12.5 µM; protein concentration 2 µM
Classification field: TRUE = thermal shift delta Tm at or over 0.4 °C; FALSE = thermal shift delta Tm under 0.4 °C.

Would you say O=C(O)c1ccc(Nc2ncc3c(n2)-c2ccc(Cl)cc2C(c2c(F)cccc2F)=NC3)cc1 shows thermal shift delta Tm at minimum 0.4 °C?
FALSE

Is reported thermal shift delta Tm greater than or equal to 0.4 °C here: OC1CCC(Nc2ncc3nc(Nc4c(F)cc(F)cc4F)n([C@H]4CCOC4)c3n2)CC1 (some centres undefined)
TRUE

In plain terms: is recorded thermal shift delta Tm at least 0.4 °C for COc1cc(Nc2ncc(F)c(Nc3ccc4c(n3)NC(=O)C(C)(C)O4)n2)cc(OC)c1OC ?
TRUE

Assess whether reported thermal shift delta Tm for Cc1[nH]nc2ccc(-c3cncc(OC[C@@H](N)Cc4ccccc4)c3)cc12 sits at 0.4 °C or higher.
TRUE

Identify whether the reported thermal shift delta Tm of the following molecule is 0.4 °C or greater: O=C1c2ccc(Nc3ccc(F)cc3F)cc2CCc2ccc(OC[C@H](O)CO)cc21 [Skepinone-L]
FALSE

Is it the case that COc1cc(OC)c(C=C2C(=O)Nc3ccccc32)c(OC)c1 has thermal shift delta Tm reaching or exceeding 0.4 °C?
FALSE

Does NC1(c2ccc(-c3nc4ccn5c(=O)[nH]nc5c4cc3-c3ccccc3)cc2)CCC1 have a reported thermal shift delta Tm of at least 0.4 °C?
FALSE

Could you tell me if the measured thermal shift delta Tm of Cc1cnc(Nc2ccc(N3CCN(C)CC3)cc2)nc1Nc1cccc(S(=O)(=O)NC(C)(C)C)c1 reaches 0.4 °C or more?
TRUE

Reported thermal shift delta Tm reaches at least 0.4 °C for CN(C)C[C@@H]1CCn2cc(c3ccccc32)C2=C(C(=O)NC2=O)c2cn(c3ccccc23)CCO1 ?
TRUE

* * *

# Tested on: LOC_OS02G14120-cb001
# Assay procedure: thermal shift delta Tm vs DMSO control; higher = stronger stabilization (binding)
# Condition details: 12.5 µM; protein concentration 2 µM
Exercise: state measured thermal shift delta Tm for each of the compounds provided.
Give a bare numeral; the unit °C is implied.

Summary for this compound, C[C@]1(O)C[C@@H](c2nc(-c3ccc4ccc(-c5ccccc5)nc4c3)c3c(N)nccn32)C1 : thermal shift delta Tm is 0.29

Documented thermal shift delta Tm of O=C1NC(=O)/C(=C/c2ccc3c(c2)OC(F)(F)O3)S1 : -0.18

# thermal shift delta Tm (compound: CC[C@@H](N)CNc1ccnc(-c2cc(-c3cnn(C)c3)ccc2O)n1 ) is 4.11

O=C(O[C@@H]1Cc2c(O)cc(O)cc2O[C@@H]1c1cc(O)c(O)c(O)c1)c1cc(O)c(O)c(O)c1 [(-)-Epigallocatechin Gallate] yielded thermal shift delta Tm of 0.07

* * *

# Test system: LOC_OS03G50450-cb001
# Assay procedure: thermal shift delta Tm vs DMSO control; higher = stronger stabilization (binding)
# Condition details: 12.5 µM; protein concentration 2 µM
Counter-ions that a name gives are not always drawn.
Reported metric: thermal shift delta Tm
Reply with the number, then its unit.

Record CCCS(=O)(=O)Nc1ccc(F)c(C(=O)c2c[nH]c3ncc(-c4ccc(Cl)cc4)cc23)c1F . Reported thermal shift delta Tm: 1.54 °C

Recorded thermal shift delta Tm (compound C=CC(=O)Nc1cccc(Oc2nc(Nc3ccc(N4CCN(C)CC4)cc3)nc3ccsc23)c1 ): 1.3 °C

The compound identified as NCC(=O)Nc1ccc(-n2nc(C(F)(F)F)cc2-c2ccc3c(ccc4ccccc43)c2)cc1 registered its thermal shift delta Tm at 0.36 °C

Looking up Cn1cc(-c2ccc3c(c2)CCN3C(=O)Cc2cccc(C(F)(F)F)c2)c2c(N)ncnc21 , I see its thermal shift delta Tm listed as 0 °C

CC(C)(C)c1ccc(S(=O)(=O)/C=C/C#N)cc1 has a reported thermal shift delta Tm of 0.05 °C

Documented thermal shift delta Tm of O=C(O)c1ccc(-c2c[nH]c3ncc(-c4ccccc4)cc23)cc1C1CCCC1 : 1.12 °C

# thermal shift delta Tm of CN1CCC(CNc2ccc3ncc(-c4cccc(OC(F)(F)F)c4)n3n2)CC1 [SGI-1776 free base] = 0.18 °C

So for CN1CC[C@H](c2c(O)cc(O)c3c(=O)cc(-c4ccccc4Cl)oc23)[C@H](O)C1 [Flavopiridol HCl] , the logged thermal shift delta Tm turned out to be 0.4 °C

// data source = the supplement of paper PMC9694430
